B1: KRT33B (parent)
chain: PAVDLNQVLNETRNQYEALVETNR

variants of: B1; test: protein stability index of a GFP-peptide fusion (GPS, HEK-293T) (PSI 1-6); higher = more stable; conditions: c terminus: a fixed tail appended;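 further: lentivirally expressed fusions sorted by FACS into six bins by GFP to DsRed ratio, PSI derived from sequencing read proportions per bin multiplied by bin number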
Threshold check on protein stability index: at or above 4 gives class 1, strictly below gives class 0.

IN: Record E11H ; criterion: protein stability index no lower than 4. Met?
OUT: class 1

IN: Record A2T ; criterion: protein stability index no lower than 4. Met?
OUT: class 0

IN: Record A2C ; criterion: protein stability index no lower than 4. Met?
OUT: class 0

IN: Record T22L ; criterion: protein stability index no lower than 4. Met?
OUT: class 0

IN: Record Y16P ; criterion: protein stability index no lower than 4. Met?
OUT: class 1

IN: Record D4P ; criterion: protein stability index no lower than 4. Met?
OUT: class 0

IN: Record A18I ; criterion: protein stability index no lower than 4. Met?
OUT: class 0

IN: Record P1I ; criterion: protein stability index no lower than 4. Met?
OUT: class 0

IN: Record P1E ; criterion: protein stability index no lower than 4. Met?
OUT: class 0

IN: Record E11Y ; criterion: protein stability index no lower than 4. Met?
OUT: class 0

IN: Record Q15I ; criterion: protein stability index no lower than 4. Met?
OUT: class 0

IN: Record P1Q ; criterion: protein stability index no lower than 4. Met?
OUT: class 0

IN: Record E17A ; criterion: protein stability index no lower than 4. Met?
OUT: class 0

IN: Record V3D ; criterion: protein stability index no lower than 4. Met?
OUT: class 1

IN: Record N23K ; criterion: protein stability index no lower than 4. Met?
OUT: class 1

IN: Record V3M ; criterion: protein stability index no lower than 4. Met?
OUT: class 0

IN: Record L19K ; criterion: protein stability index no lower than 4. Met?
OUT: class 1

IN: Record N14E ; criterion: protein stability index no lower than 4. Met?
OUT: class 0

IN: Record N23W ; criterion: protein stability index no lower than 4. Met?
OUT: class 0

IN: Record E17T ; criterion: protein stability index no lower than 4. Met?
OUT: class 0

IN: Record T12A ; criterion: protein stability index no lower than 4. Met?
OUT: class 0

IN: Record V8A ; criterion: protein stability index no lower than 4. Met?
OUT: class 0

IN: Record V3H ; criterion: protein stability index no lower than 4. Met?
OUT: class 1

IN: Record V3A ; criterion: protein stability index no lower than 4. Met?
OUT: class 0

IN: Record P1V ; criterion: protein stability index no lower than 4. Met?
OUT: class 0

IN: Record E21V ; criterion: protein stability index no lower than 4. Met?
OUT: class 0

IN: Record A2P ; criterion: protein stability index no lower than 4. Met?
OUT: class 0

IN: Record N6D ; criterion: protein stability index no lower than 4. Met?
OUT: class 0

IN: Record T22S ; criterion: protein stability index no lower than 4. Met?
OUT: class 1

IN: Record A2V ; criterion: protein stability index no lower than 4. Met?
OUT: class 0

IN: Record E21A ; criterion: protein stability index no lower than 4. Met?
OUT: class 0

IN: Record R13L ; criterion: protein stability index no lower than 4. Met?
OUT: class 0

IN: Record A18P ; criterion: protein stability index no lower than 4. Met?
OUT: class 1

IN: Record A2M ; criterion: protein stability index no lower than 4. Met?
OUT: class 0

IN: Record A2W ; criterion: protein stability index no lower than 4. Met?
OUT: class 0

IN: Record L5H ; criterion: protein stability index no lower than 4. Met?
OUT: class 0

IN: Record D4Q ; criterion: protein stability index no lower than 4. Met?
OUT: class 1

IN: Record V3G ; criterion: protein stability index no lower than 4. Met?
OUT: class 1

IN: Record N14K ; criterion: protein stability index no lower than 4. Met?
OUT: class 0

IN: Record T12M ; criterion: protein stability index no lower than 4. Met?
OUT: class 0

IN: Record R13A ; criterion: protein stability index no lower than 4. Met?
OUT: class 1

Origin of values: the supplement of paper PMC10567573
